details: pH 2.7
Marks after values point to notes of the source that are not given here.
endpoint label: Log P

Please review the following examples before continuing.
- molecule: "CCCCCC(C)NC(=C(C#N)C(=O)OCC)c1cn(C)nc1C(F)F (stereo not shown) [Compound 853]"
  val: "3.94^[a]"
- molecule: "CCOC(=O)C(C#N)=C(NC(C)C1CC1)c1cn(C)nc1C(F)F (stereo not shown)"
  val: "2.88^[a]"
- molecule: "CCOC(=O)C(C#N)=C(NC(C)c1ccc(Cl)cc1)c1cn(C)nc1OC (racemic)"
  val: "3.51^[a]"
- molecule: "CCOC(=O)C(C#N)=C(NC(C)(C)C#CCOC)c1sc(C)nc1C(F)(F)F"
  val: "3.42^[a]"
- molecule: "CCOC(=O)C(C#N)=C(NC(C)C(C)C)c1ccncc1F (stereo not shown)"
  val: "3.08^[a]"

Reported Log P ( CCOC(=O)C(C#N)=C(NC(C)(C)C#Cc1ccc(C#N)cc1)c1ccsc1Br ) = 4.21^[a]

The recorded Log P for entry CC#CC(C)NC(=C(C#N)C(=O)OCC)c1ccnc(Cl)c1F (stereo not shown) equals 3.39^[a]

# Log P (molecule: CCOC(=O)C(C#N)=C(NC(C)(C)C#N)c1nc(Cl)ccc1Cl ) is 2.98^[a]

// Log P value for CCOC(=O)C(C#N)=C(NC(C)c1ccccn1)c1ccnc(SC)c1Cl (racemic) : 3.35^[a]

Log P for CCOC(=O)C(C#N)=C(NC(C)c1ccc(Cl)cc1)c1c(C)nn(C)c1Cl (stereo not shown) is 3.8^[a]

Please fill in: Log P reported for CCOC(=O)C(C#N)=C(Nc1ccccc1C(=O)C1CC1)c1cn(C)nc1C(F)F = 3^[a]

Record summary for CCOC(=O)C(C#N)=C(NC(C)C(C)C)c1c(C(F)(F)F)nn(C)c1F (stereo not shown) : reported Log P = 3.93^[a]

Measured Log P, COC(=O)C(C#N)=C(NC(C)CC1CC1)c1cccnc1Cl (stereo not shown) : 2.84^[a]

Query CC(C)C(C)NC(=C(C#N)C(=O)NC1CC1(C)C)c1cccnc1Cl (mixture of isomers) yields Log P of 3.72^[a]

Consider CC#CC1(NC(=C(C#N)C(=O)OCC)c2cn(C)nc2C(F)F)CCCC1 . Its measured Log P is 3.39^[a]

Briefly, Log P measured for CCOC(=O)C(C#N)=C(NCc1nccs1)c1cn(C)nc1C(F)F : 2^[a]

Value of measured Log P for the entry CCOC(=O)C(C#N)=C(NC(C)Cc1c[nH]c2ccccc12)c1sccc1C(F)(F)F (stereo not shown) : 3.94^[a]

Just so you know, measured Log P for CCOC(=O)C(C#N)=C(NCc1nc(C(F)(F)F)cs1)c1cn(C)nc1C(F)F came out at 2.78^[a]

In plain terms, CCOC(=O)C(C#N)=C(NCc1ccc(C)c(C)n1)c1cccnc1Cl has a documented Log P of 1.91^[a]

For reference, reported Log P for COC(=O)C(C#N)=C(NC(C)c1ccccc1)c1sc(C)nc1C(F)(F)F (mixture of isomers) stands at 3.62^[a]

Consider CCOC(=O)C(C#N)=C(Nc1ccc(N(C)C)cc1)c1cn(C)nc1C(F)F . Its measured Log P is 2.71^[a]

So for CCNC(=O)C(C#N)=C(NC(C)c1ccccn1)c1ccnc(Cl)c1Cl (stereo not shown) , the logged Log P turned out to be 2.53^[a]

Reported Log P of CCOC(=O)C(C#N)=C(NC1(c2c(F)cccc2F)CC1)c1cn(C)nc1C(F)(F)F : 3.48^[a]

Lab note: C#CC(C)NC(=C(C#N)C(=O)OCC)c1cn(C)nc1C(F)F (stereo not shown) gave Log P of 2.44^[a]

Lab book: Log P of CCOC(=O)C(C#N)=C(NC(C)c1ccc(F)cc1)c1cccnc1Cl (stereo not shown) noted as 3.51^[a]

response.value for COC(=O)C(C#N)=C(NC1(c2cccc(Cl)c2)CC1)c1cccnc1Cl (field: Log P) = 3.11^[a]

Log P recorded for this molecule, CCOC(=O)C(C#N)=C(NC1(c2cccc(Cl)c2)CC1)c1cn(C)nc1C(F)F , is 3.51^[a]
